Below: a set of entries, each annotated with reported GI50.
# Tested on: NCI-H23
# EXPERIMENT_DESCRIPTION: Cytotoxicity against human NCI-H23 cells assessed as growth inhibition by SRB assay
# Type: functional
Please answer in the form of a number followed by its unit of measurement.

Observe how each entry below is paired with its result.
CC(C)(C)c1ccc(CN2CC=C(CCC(=O)NO)C2=O)cc1	0.42 µM
O=C(CCC1=CCN(Cc2ccc(F)cc2)C1=O)NO	4.67 µM
N#Cc1ccc(CN2CC=C(CCC(=O)NO)C2=O)cc1	2.32 µM
O=C(CCC1=CCN(CCc2cccc([N+](=O)[O-])c2)C1=O)NO	4.39 µM
N#Cc1cccc(CN2CC=C(CCC(=O)NO)C2=O)c1	4.08 µM

Read the next record carefully.
Which GI50 is reported for this molecule? O=C(CCC1=CCN(CCc2ccc([N+](=O)[O-])cc2)C1=O)NO
7.8 µM

====

Below: a set of entries, each annotated with reported remaining at 0.5 h, 1 µM.
# EXPERIMENT_DESCRIPTION: Metabolic stability in ICR mouse liver microsomes at 1 uM measured at 30 min in absence of NADPH
# Assay type: ADME, Microsome
# RECORDED_CONDITIONS: read-out: Stability
Please answer in the form of a number followed by its unit of measurement.

Observe how each entry below is paired with its result.
CC(C)(C)c1ccc(CCCN2CC=C(CCC(=O)NO)C2=O)cc1	57.6%
CC(C)(C)c1ccc(CN2CC=C(CCC(=O)NO)C2=O)cc1	79%
O=C(CCC1=CCN(Cc2ccc(Br)cc2)C1=O)NO	100%
O=C(CCC1=CCN(Cc2cc(C(F)(F)F)cc(C(F)(F)F)c2)C1=O)NO	40.5%

Which remaining at 0.5 h, 1 µM is reported for this molecule? O=C(CCC1=CCN(CCCCc2ccc(Cl)cc2)C1=O)NO
34.6%

Next: CC(C)(C)c1ccc(CCN2CC=C(CCC(=O)NO)C2=O)cc1
51%

Next: O=C(CCC1=CCN(Cc2ccc(F)cc2)C1=O)NO
91.4%

====

# EXPERIMENT_DESCRIPTION: Lipophilicity, log D of the compound
# Format: physicochemical
# RECORDED_CONDITIONS: octanol/water
Below: a set of entries, each annotated with reported logD.
// no unit string in output, number only

O=C(CCC1=CCN(CCc2ccc([N+](=O)[O-])cc2)C1=O)NO	0.594
CC(C)(C)c1ccc(CN2CC=C(CCC(=O)NO)C2=O)cc1	2.1
N#Cc1cccc(CN2CC=C(CCC(=O)NO)C2=O)c1	0.236
O=C(CCC1=CCN(Cc2ccc(Br)cc2)C1=O)NO	1.26
O=C(CCC1=CCN(CCc2cccc([N+](=O)[O-])c2)C1=O)NO	0.633

Which logD is reported for this compound? CC(C)(C)c1ccc(CCN2CC=C(CCC(=O)NO)C2=O)cc1
2.25

Next: O=C(CCC1=CCN(Cc2ccc(F)cc2)C1=O)NO
0.571

Next: N#Cc1ccc(CN2CC=C(CCC(=O)NO)C2=O)cc1
0.197

Next: O=C(CCC1=CCN(Cc2cc(C(F)(F)F)cc(C(F)(F)F)c2)C1=O)NO
2.4

Next: O=C(CCC1=CCN(CCCCc2ccc(Cl)cc2)C1=O)NO
2.17

Next: CC(C)(C)c1ccc(CCCN2CC=C(CCC(=O)NO)C2=O)cc1
2.7

====

# EXPERIMENT_DESCRIPTION: Half life in Balb/c mouse at 30 mg/kg, po
# Format: ADME, organism-based
# Design: dose 30 mg/kg, route oral
# RECORDED_CONDITIONS: in vivo
Below: a set of entries, each annotated with reported half-life.
# output: bare number, implied unit min

Which half-life is reported for this molecule? O=C(CCC1=CCN(Cc2ccc(F)cc2)C1=O)NO
66

Next: O=C(CCC1=CCN(Cc2ccc(Br)cc2)C1=O)NO
186

====

# EXPERIMENT_DESCRIPTION: Cmax in Balb/c mouse at 30 mg/kg, po
# Format: ADME, organism-based
# Set-up: dose 30 mg/kg, route oral
# RECORDED_CONDITIONS: in vivo
ENDPOINT_LABEL: Cmax
Please answer in the form of a number followed by its unit of measurement.

O=C(CCC1=CCN(Cc2ccc(Br)cc2)C1=O)NO	2710 ng/mL

Read the next record carefully.
Which Cmax is reported for this molecule? O=C(CCC1=CCN(Cc2ccc(F)cc2)C1=O)NO
2300 ng/mL

====

# EXPERIMENT_DESCRIPTION: Passive permeability of the compound by PAMPA
# Format: ADME
# RECORDED_CONDITIONS: read-out: permeability
Below: a set of entries, each annotated with reported Papp.
# output: bare number, implied unit ×10⁻⁶ cm/s

Observe how each entry below is paired with its result.
O=C(CCC1=CCN(Cc2ccc(Br)cc2)C1=O)NO	1.02
CC(C)(C)c1ccc(CCN2CC=C(CCC(=O)NO)C2=O)cc1	6.53
CC(C)(C)c1ccc(CCCN2CC=C(CCC(=O)NO)C2=O)cc1	1.5
CC(C)(C)c1ccc(CN2CC=C(CCC(=O)NO)C2=O)cc1	2.19
O=C(CCC1=CCN(CCCCc2ccc(Cl)cc2)C1=O)NO	0.494
O=C(CCC1=CCN(Cc2cc(C(F)(F)F)cc(C(F)(F)F)c2)C1=O)NO	2.83

Read the next record carefully.
Which Papp is reported for this molecule? O=C(CCC1=CCN(Cc2ccc(F)cc2)C1=O)NO
1.93

====

# EXPERIMENT_DESCRIPTION: AUC (0 to 5 hrs) in Balb/c mouse at 20 mg/kg, po
# Assay type: ADME, organism-based
# Design: dose 20 mg/kg, route oral
# RECORDED_CONDITIONS: plasma
ENDPOINT_LABEL: AUC(0-t) at 4 h (µg·h/mL)
# output: bare number, implied unit µg·h/mL

Which AUC(0-t) at 4 h is reported for this compound? CC(C)(C)c1ccc(CN2CC=C(CCC(=O)NO)C2=O)cc1
0.739

====

# System: PC-3
# EXPERIMENT_DESCRIPTION: Cytotoxicity against human PC3 cells assessed as growth inhibition by SRB assay
# Format: functional, cell-based
Below: a set of entries, each annotated with reported GI50.

O=C(CCC1=CCN(CCc2ccc([N+](=O)[O-])cc2)C1=O)NO	> 10 µM

Which GI50 is reported for this molecule? O=C(CCC1=CCN(Cc2ccc(F)cc2)C1=O)NO
5.31 µM

====

Below: a set of entries, each annotated with reported half-life.
# EXPERIMENT_DESCRIPTION: Half life in Balb/c mouse at 10 mg/kg, iv
# Format: ADME, organism-based
# Set-up: dose 10 mg/kg, route intravenous
# RECORDED_CONDITIONS: in vivo
# output: bare number, implied unit h

O=C(CCC1=CCN(Cc2ccc(F)cc2)C1=O)NO	2.6

Which half-life is reported for this molecule? CC(C)(C)c1ccc(CN2CC=C(CCC(=O)NO)C2=O)cc1
7.8

Next: O=C(CCC1=CCN(Cc2ccc(Br)cc2)C1=O)NO
2.8

====

Below: a set of entries, each annotated with reported AUC(0-t) at 4 h.
# EXPERIMENT_DESCRIPTION: AUC (0 to 5 hrs) in Balb/c mouse at 30 mg/kg, po
# Type: ADME, organism-based
# Design: dose 30 mg/kg, route oral
# RECORDED_CONDITIONS: plasma
# output: bare number, implied unit ng·h/mL

O=C(CCC1=CCN(Cc2ccc(F)cc2)C1=O)NO	1180

Read the next record carefully.
Which AUC(0-t) at 4 h is reported for this compound? O=C(CCC1=CCN(Cc2ccc(Br)cc2)C1=O)NO
3110

====

# EXPERIMENT_DESCRIPTION: Half life in Balb/c mouse at 20 mg/kg, po
# Format: ADME, organism-based
# Design: dose 20 mg/kg, route oral
# RECORDED_CONDITIONS: in vivo
ENDPOINT_LABEL: half-life (h)
# output: bare number, implied unit h

Which half-life is reported for this molecule? CC(C)(C)c1ccc(CN2CC=C(CCC(=O)NO)C2=O)cc1
13.6

====

Below: a set of entries, each annotated with reported remaining at 0.5 h, 1 µM.
# EXPERIMENT_DESCRIPTION: Metabolic stability in ICR mouse liver microsomes at 1 uM measured at 30 min in presence of NADPH
# Type: ADME, Microsome
# RECORDED_CONDITIONS: read-out: Stability
# output: bare number, implied unit %

Observe how each entry below is paired with its result.
O=C(CCC1=CCN(Cc2ccc(F)cc2)C1=O)NO	87.7
O=C(CCC1=CCN(CCCCc2ccc(Cl)cc2)C1=O)NO	24.9
O=C(CCC1=CCN(Cc2ccc(Br)cc2)C1=O)NO	84
CC(C)(C)c1ccc(CCCN2CC=C(CCC(=O)NO)C2=O)cc1	35.3

Which remaining at 0.5 h, 1 µM is reported for this compound? CC(C)(C)c1ccc(CCN2CC=C(CCC(=O)NO)C2=O)cc1
38.1

Next: O=C(CCC1=CCN(Cc2cc(C(F)(F)F)cc(C(F)(F)F)c2)C1=O)NO
35.7

Next: CC(C)(C)c1ccc(CN2CC=C(CCC(=O)NO)C2=O)cc1
58.2
